Data credit: the RNAGym collection of RNA variant scans (doi:10.7554/elife.80360)

Each entry below lists one item and its recorded self-cleavage value.
B1: Hairpin Ribozyme (parent)
chain: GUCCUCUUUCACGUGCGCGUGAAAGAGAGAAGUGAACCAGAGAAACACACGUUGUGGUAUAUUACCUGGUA

# Variants of: B1
# TEST SUMMARY: self-cleavage, relative activity (ratio to wild type); higher = more cleavage; co-transcriptional
The answer should be written as a number, with no unit following it.

{"MUTATION DESCRIPTOR": "A43U U53A", "QUANTITY NAME": "self-cleavage", "REPORTED VALUE": 0.206}
{"MUTATION DESCRIPTOR": "A47G A61U", "QUANTITY NAME": "self-cleavage", "REPORTED VALUE": 0.195}

IN: Please report self-cleavage for the following variant: C12G U67A
OUT: 0.202

IN: Please report self-cleavage for the following variant: A23C C38U
OUT: 0.398
